Provenance of the data: patent US20200079833A1

Molecular target: T1, GLP-1R in the INS1e assay (UniProt P32301 22-463, limits assumed)
T1 sequence (looked up): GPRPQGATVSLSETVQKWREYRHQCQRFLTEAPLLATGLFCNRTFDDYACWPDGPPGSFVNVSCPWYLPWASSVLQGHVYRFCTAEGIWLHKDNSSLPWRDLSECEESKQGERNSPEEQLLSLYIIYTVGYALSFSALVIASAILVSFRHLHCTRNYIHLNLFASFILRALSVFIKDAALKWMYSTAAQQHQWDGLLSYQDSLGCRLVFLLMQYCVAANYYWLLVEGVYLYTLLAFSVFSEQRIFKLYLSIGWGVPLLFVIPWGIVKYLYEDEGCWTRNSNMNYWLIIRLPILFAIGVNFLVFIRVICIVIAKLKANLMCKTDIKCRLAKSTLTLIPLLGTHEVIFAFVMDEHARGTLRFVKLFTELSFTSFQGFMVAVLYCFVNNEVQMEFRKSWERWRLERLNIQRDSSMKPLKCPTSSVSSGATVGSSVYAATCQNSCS
Assay: cell-based or functional assay
Starred links: 1 amine or outer side, 2 acyl side, 3 side chain; linkers in the order of their positions; H or OH if unused. Non-standard residues stand in square brackets, D forms with d. Groups on a side chain read outwards from the residue. Primed or numbered codes have the meaning given here. No end group written: not given here. *: point of attachment. γGlu = O=C(O)[C@H](CCC(=O)[*:2])N[*:1]; αMeF = C[C@](N)(Cc1ccccc1)C(=O)O; αMeK = C[C@](N)(CCCCN)C(=O)O; Lauroyl = CCCCCCCCCCCC(=O)*; αMeS = C[C@](N)(CO)C(=O)O; PEG2′ = not defined here; Aib = CC(C)(N)C(=O)O
parameter.measured: cAMP INS1e assay EC50, n1 (nM)
Unit nM implied. Number only.

For the binder H[Aib]EGS[αMeF]TSDV[αMeS]SK([PEG2′-PEG2′-γGlu-Lauroyl])LEGK([PEG2′-PEG2′-γGlu-Lauroyl])AA[αMeK]EFIAFK([PEG2′-PEG2′-γGlu-Lauroyl])VEGG-NH2 [SEQ ID NO: 480] , what cAMP INS1e assay EC50, n1 is on record?
9.37

Given the binder H[Aib]EGS[αMeF]TSDVSK([PEG2′-PEG2′-γGlu-Lauroyl])YLEGEAA[αMeK]K([PEG2′-PEG2′-γGlu-Lauroyl])FIAK([PEG2′-PEG2′-γGlu-Lauroyl])VVEGG-NH2 [SEQ ID NO: 462] , what is its reported cAMP INS1e assay EC50, n1?
5.4

Request the reported cAMP INS1e assay EC50, n1 associated with H[Aib]EGS[αMeF]TSDK([PEG2′-PEG2′-γGlu-Lauroyl])SSYLEK([PEG2′-PEG2′-γGlu-Lauroyl])EAA[αMeK]EFIAK([PEG2′-PEG2′-γGlu-Lauroyl])VVEGG-NH2 [SEQ ID NO: 455]
6.74

Which cAMP INS1e assay EC50, n1 is listed for H[Aib]EGS[αMeF]TSDV[αMeS]SK([PEG2′-PEG2′-γGlu-Lauroyl])LEGEAA[αMeK]K([PEG2′-PEG2′-γGlu-Lauroyl])FIK([PEG2′-PEG2′-γGlu-Lauroyl])FVVEGG-NH2 [SEQ ID NO: 450] ?
6.38

State the recorded cAMP INS1e assay EC50, n1 for this entry: H[Aib]EGS[αMeF]TSDV[αMeS]SYK([PEG2′-PEG2′-γGlu-Lauroyl])EGEK([PEG2′-PEG2′-γGlu-Lauroyl])A[αMeK]EFIAK([PEG2′-PEG2′-γGlu-Lauroyl])VVEGG-NH2 [SEQ ID NO: 469]
6.9

Quick one: cAMP INS1e assay EC50, n1 of H[Aib]EGS[αMeF]TSDV[αMeS]SK([PEG2′-PEG2′-γGlu-Lauroyl])LEGEAA[αMeK]K([PEG2′-PEG2′-γGlu-Lauroyl])FIAK([PEG2′-PEG2′-γGlu-Lauroyl])VVEGG-NH2 [SEQ ID NO: 466] ?
3.86

Request the reported cAMP INS1e assay EC50, n1 associated with H[Aib]EGS[αMeF]TSDV[αMeS]SK([PEG2′-PEG2′-γGlu-Lauroyl])LEGK([PEG2′-PEG2′-γGlu-Lauroyl])AA[αMeK]EFIAK([PEG2′-PEG2′-γGlu-Lauroyl])VVEGG-NH2 [SEQ ID NO: 464]
4.46

Consider the binder shown here: H[Aib]EGS[αMeF]TSDK([PEG2′-PEG2′-γGlu-Lauroyl])SSYLEGEAA[αMeK]K([PEG2′-PEG2′-γGlu-Lauroyl])FIAK([PEG2′-PEG2′-γGlu-Lauroyl])VVEGG-NH2 [SEQ ID NO: 458] What is its recorded cAMP INS1e assay EC50, n1?
3.07

Returns the measured cAMP INS1e assay EC50, n1 for the input binder. Input: H[Aib]EGS[αMeF]TSDV[αMeS]SYK([PEG2′-PEG2′-γGlu-Lauroyl])EK([PEG2′-PEG2′-γGlu-Lauroyl])EAA[αMeK]EFIAK([PEG2′-PEG2′-γGlu-Lauroyl])VVEGG-NH2 [SEQ ID NO: 467]
9.92

Reported cAMP INS1e assay EC50, n1 for H[Aib]EGS[αMeF]TSDV[αMeS]SK([PEG2′-PEG2′-γGlu-Lauroyl])LEGEAA[αMeK]K([PEG2′-PEG2′-γGlu-Lauroyl])FIAFK([PEG2′-PEG2′-γGlu-Lauroyl])VEGG-NH2 [SEQ ID NO: 482] : what is it?
8.57
